In this section we review reported apparent KD of MS2 coat protein values for a set of sequences.
# System: MS2 coat protein
# Method Notes: apparent KD of MS2 coat protein; designed switch direction (-1 OFF switch, 1 ON switch): -1; higher = weaker reporter binding
# Condition Summary: Eterna round: R95; input ligand: none
# number only, unit nM dropped from output

UUGGAUAUCUAUGGGAGUAACAUGAGGAUCACCCAUGUAUGUCUUGUUUUUUGUUCGUCAUAGGCCAUUUGAUUGGA [JR_SV3TOV1_Sub025] (puzzle: Sensor v3, turn-off variant 1) = 94.6
GGAGUACAUGAGGAUCACCCAUGUGAGGAUAUGUAAGGAUAGUAGGUAAGGAAAGAGGACAGAAGGCACGGGAA [JR_Exclu1_Sub070] (puzzle: Exclusion 1) = 67.2
CUGGUCCGAGGAUAUAUGAUGUGAAACAUGAGGAUCACCCAUGUAAUAUUAUGGAUGGAAAUAGAAGGCGGACUAG [Mat - Exclusion 5 - JL mod - D36] (puzzle: Exclusion 5) = 65.2
UUUUAGAGAGGAUAUAUUAUGUGAAACAUGAGGAUCACCCAUGUAAUAUGAUGGAUGUAAAUAGAAGGCUCAUUUA [JL-ex5-3.06] (puzzle: Exclusion 5) = 58
CUUAGCCUAAAAUCACGCAAGCUUUUUACUUGUCUUAAGACAUGAGGAUCACCCAUGUCCGGGCUGAACUUAUGGAA [Zaortequ] (puzzle: Sensor v3, turn-off variant 2) = 21.4

(Q) For the sequence GCCAGAGCAGGAUAUUCAAUAUUCCACAUGAGGAUCACCCAUGUCCAGCGAAAGCUGGAGGGAGAAGGGCUCUGGC [Fiskers Ex 5 - 8] (puzzle: Exclusion 5) , what apparent KD of MS2 coat protein is on record?
(A) 56.3

(Q) For the sequence UGUACUAUGCGUGCUGACAUGCGUAGUGCAGCAGGUGUUACAUGAGGAUCACCCAUGUCCUCAUUUGCUCGUCUUAU [SL-sv3-2.07 JL mod] (puzzle: Sensor v3, turn-off variant 2) , what apparent KD of MS2 coat protein is on record?
(A) 215

(Q) For the sequence CAUGCUUCGGCAUGUACAAGCUUUUUGCUCGUCUUAUUAACAUGAGGAUCACCCAUGUUAAUGAGACCUCAUGUAUU [Sensor v3 - turn-off variant 2 - 8] (puzzle: Sensor v3, turn-off variant 2) , what apparent KD of MS2 coat protein is on record?
(A) 11.4

(Q) For the sequence CUGGUCCGAGGAUAUUUUAUGUGAUACAUGAGGAUCACCCAUGUUAUAUGAUGGAUGUUAAAAGAAGGCGGACUAG [Mat - Exclusion 5 - JL mod - D80] (puzzle: Exclusion 5) , what apparent KD of MS2 coat protein is on record?
(A) 114

(Q) For the sequence AAGAAACAUGAGGAUCACCCAUGUGAGGAUAUGAAAAAGAAAAGAAAAGAAAGAAGAAUCAGAAGGCACAAAGA [salish99-ex1_r3_080] (puzzle: Exclusion 1) , what apparent KD of MS2 coat protein is on record?
(A) 27.1
